- Tested Target: T1, HLA-A*01:01 (human)
- T1 construct: Peptide-receptive MHC monomer made by UV cleavage of a UV-sensitive peptide
- Test Protocol: UV-ligand exchange, anti-b2m ELISA; exchange yield grade (+ >10%, ++ >20%, +++ >50, ++++ >75%)
I'd appreciate it if you could supply peptide exchange yield values for the items below.

Use these answered entries as a reference point.
>>> result_value("LITGDPKAAYDY")
"20 to 50%"
>>> result_value("STDIGALMY")
"50 to 75%"
>>> result_value("RSDPVTLNV")
"50 to 75%"
>>> result_value("STDEITTRY")
"50 to 75%"
>>> result_value("TPVTEFSLNTY")
"20 to 50%"
>>> result_value("LPSPTDSNFY")
"20 to 50%"
>>> result_value("FASDLLHLY")
"20 to 50%"

Task: // lookup peptide exchange yield for ATVGYFIFY
Result: 20 to 50%

Values were extracted from patent US20180291082A1.
